Test system: genotype 1a replicon cells
Assay: Cell number by count of Hoechst-stained nuclei
Format: cell-based
Settings: Hoechst-stained nuclei, three days
outcome.measure: CC50 (nM)
Numbers only, in nM.

q: # return recorded CC50 for input "C=CCNC1=C2C[C@@H](C)C[C@H](OC)[C@H](O)[C@@H](C)/C=C(\C)[C@H](OC(N)=O)[C@@H](OC)/C=C\C=C(/C)C(=O)NC(=CC1=O)C2=O"
a: 5

###

Assay: Calcein AM intracellular esterase activity (cell viability)
For each of the compounds below, state its CC50 at 3 days.

Some entries whose results are on file:
structure.as.smiles: Nc1ccn([C@@H]2O[C@H](CO)[C@@H](O)C2(F)F)c(=O)n1
CC50 at 3 days: > 44.4 µM
--
structure.as.smiles: COc1cc2c(c(OC)c1OC)-c1ccc(OC)c(=O)cc1[C@@H](NC(C)=O)CC2
CC50 at 3 days: > 44.4 µM
--
structure.as.smiles: CNC(=O)c1c(-c2ccc(F)cc2)oc2cc(N(CCO)S(C)(=O)=O)c(C3CC3)cc12
CC50 at 3 days: > 44.4 µM

For the next question, use this compound.
q: Give the reported value of CC50 at 3 days for this record: "COc1ccc(C[C@H](N)C(=O)N[C@H]2[C@@H](O)[C@H](n3cnc4c(N(C)C)ncnc43)O[C@@H]2CO)cc1"
a: 1.07 µM
